- tested.on: human TLR8 (Homo sapiens, UniProt Q9NR97)
- Sequence (Q9NR97 27-1041): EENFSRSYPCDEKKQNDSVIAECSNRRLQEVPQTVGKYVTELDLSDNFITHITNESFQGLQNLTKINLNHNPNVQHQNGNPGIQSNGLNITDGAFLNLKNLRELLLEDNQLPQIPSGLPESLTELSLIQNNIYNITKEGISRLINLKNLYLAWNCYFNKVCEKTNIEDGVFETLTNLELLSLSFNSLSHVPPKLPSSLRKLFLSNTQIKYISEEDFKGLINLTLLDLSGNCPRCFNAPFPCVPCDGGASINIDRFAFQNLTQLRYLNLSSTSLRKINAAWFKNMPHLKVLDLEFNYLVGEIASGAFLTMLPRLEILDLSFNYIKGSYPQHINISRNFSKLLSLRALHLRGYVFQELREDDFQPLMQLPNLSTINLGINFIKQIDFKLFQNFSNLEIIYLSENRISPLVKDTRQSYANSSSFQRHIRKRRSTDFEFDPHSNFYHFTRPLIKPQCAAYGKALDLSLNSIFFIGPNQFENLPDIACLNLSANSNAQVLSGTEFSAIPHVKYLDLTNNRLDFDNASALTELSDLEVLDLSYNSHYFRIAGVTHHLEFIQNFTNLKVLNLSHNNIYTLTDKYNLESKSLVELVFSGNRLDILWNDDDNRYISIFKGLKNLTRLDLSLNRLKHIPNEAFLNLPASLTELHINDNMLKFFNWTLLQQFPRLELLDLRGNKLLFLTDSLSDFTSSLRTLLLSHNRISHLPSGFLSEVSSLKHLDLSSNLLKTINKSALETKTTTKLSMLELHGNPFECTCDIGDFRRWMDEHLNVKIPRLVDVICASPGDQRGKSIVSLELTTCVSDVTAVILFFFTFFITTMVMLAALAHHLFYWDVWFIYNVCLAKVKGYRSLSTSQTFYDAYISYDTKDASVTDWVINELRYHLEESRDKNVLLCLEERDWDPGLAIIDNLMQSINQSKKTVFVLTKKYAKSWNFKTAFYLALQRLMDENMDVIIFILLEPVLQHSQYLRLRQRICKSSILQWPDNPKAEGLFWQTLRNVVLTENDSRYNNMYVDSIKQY
- protocol.summary: HEK293-Blue-hTLR-8 cells assay (SEAP reporter)
- condition.label: TLR8 agonism, 20 hours incubation, 1% DMSO
In this section we review reported EC50 values for a set of compounds.
reported.endpoint: EC50 (µM)

[
  {
    "cpd.smiles": "CC[C@H](O)[C@@H]1C[C@@H]([C@H](C)NCc2ccccc2)[C@H](n2c(=O)sc3c(=O)[nH]c(N)nc32)O1",
    "reported.endpoint": "EC50",
    "val": 2.2
  },
  {
    "cpd.smiles": "CC[C@H](O)[C@@H]1C[C@@H]([C@@H](C)N)[C@H](n2c(=O)sc3c(=O)[nH]c(N)nc32)O1",
    "reported.endpoint": "EC50",
    "val": 55
  },
  {
    "cpd.smiles": "CC[C@H](O)[C@@H]1C[C@@H]([C@@H](C)NCc2ccccc2)[C@H](n2c(=O)sc3c(=O)[nH]c(N)nc32)O1",
    "reported.endpoint": "EC50",
    "val": 85
  }
]

* * *

- tested.on: human TLR8 (Homo sapiens)
- protocol.summary: HEK293-Blue-hTLR-8 cells assay (SEAP reporter)
- condition.label: TLR8 agonism, 20 hours incubation, 1% DMSO
Cut-off 30 µM on EC50: below means label 1, at or above means label 0.

[
  {
    "cpd.smiles": "CC[C@H](O)[C@@H]1C[C@@H]([C@H](C)N)[C@H](n2c(=O)sc3c(=O)[nH]c(N)nc32)O1",
    "category.label": "label 1"
  },
  {
    "cpd.smiles": "CC[C@H](O)[C@@H]1C[C@@H]([C@@H](C)NC)[C@H](n2c(=O)sc3c(=O)[nH]c(N)nc32)O1",
    "category.label": "label 1"
  },
  {
    "cpd.smiles": "CCCN[C@H](C)[C@@H]1C[C@@H]([C@@H](O)CC)O[C@H]1n1c(=O)sc2c(=O)[nH]c(N)nc21",
    "category.label": "label 0"
  },
  {
    "cpd.smiles": "CC[C@H](O)[C@@H]1C[C@@H]([C@@H](C)N(C)C)[C@H](n2c(=O)sc3c(=O)[nH]c(N)nc32)O1",
    "category.label": "label 0"
  },
  {
    "cpd.smiles": "CC[C@H](O)[C@@H]1C[C@@H]([C@H](C)NC)[C@H](n2c(=O)sc3c(=O)[nH]c(N)nc32)O1",
    "category.label": "label 1"
  },
  {
    "cpd.smiles": "CC[C@H](O)[C@@H]1C[C@@H]([C@@H](C)NC2CC2)[C@H](n2c(=O)sc3c(=O)[nH]c(N)nc32)O1",
    "category.label": "label 0"
  }
]

* * *

- tested.on: human TLR7 (Homo sapiens, UniProt Q9NYK1)
- Sequence (Q9NYK1 27-1049): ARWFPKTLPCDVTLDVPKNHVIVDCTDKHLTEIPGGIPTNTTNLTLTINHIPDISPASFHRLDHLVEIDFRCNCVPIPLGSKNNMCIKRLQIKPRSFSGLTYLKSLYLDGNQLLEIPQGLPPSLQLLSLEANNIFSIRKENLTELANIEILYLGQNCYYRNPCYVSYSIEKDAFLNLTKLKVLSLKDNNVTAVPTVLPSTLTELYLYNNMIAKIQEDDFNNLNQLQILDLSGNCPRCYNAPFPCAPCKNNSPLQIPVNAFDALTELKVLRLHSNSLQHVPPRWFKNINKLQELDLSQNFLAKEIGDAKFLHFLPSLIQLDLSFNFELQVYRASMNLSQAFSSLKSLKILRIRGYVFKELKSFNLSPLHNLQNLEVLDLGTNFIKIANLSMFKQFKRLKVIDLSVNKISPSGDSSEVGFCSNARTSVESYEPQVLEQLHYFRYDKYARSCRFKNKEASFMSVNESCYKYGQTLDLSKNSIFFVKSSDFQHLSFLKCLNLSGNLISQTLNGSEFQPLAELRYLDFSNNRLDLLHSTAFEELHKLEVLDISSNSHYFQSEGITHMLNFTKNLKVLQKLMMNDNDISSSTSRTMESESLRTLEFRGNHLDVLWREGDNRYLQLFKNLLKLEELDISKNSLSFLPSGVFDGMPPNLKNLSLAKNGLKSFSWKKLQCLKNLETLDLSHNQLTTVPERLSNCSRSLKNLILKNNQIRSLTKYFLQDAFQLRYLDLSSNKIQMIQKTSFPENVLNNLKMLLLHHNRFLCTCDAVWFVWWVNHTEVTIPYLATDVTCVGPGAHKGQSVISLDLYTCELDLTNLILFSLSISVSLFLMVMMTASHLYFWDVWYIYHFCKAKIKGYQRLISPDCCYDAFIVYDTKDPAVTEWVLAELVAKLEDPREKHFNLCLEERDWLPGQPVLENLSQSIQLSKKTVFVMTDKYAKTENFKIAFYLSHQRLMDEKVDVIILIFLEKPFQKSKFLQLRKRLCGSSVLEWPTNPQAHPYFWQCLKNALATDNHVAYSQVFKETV
- protocol.summary: HEK293-Blue-hTLR-7 cells assay (SEAP reporter)
- condition.label: TLR7 agonism, 20 hours incubation, 1% DMSO
Recorded EC50 by entry

[
  {
    "cpd.smiles": "CC[C@H](O)[C@@H]1C[C@@H]([C@H](C)NC)[C@H](n2c(=O)sc3c(=O)[nH]c(N)nc32)O1",
    "unit.descriptor": "µM",
    "EC50": 250
  },
  {
    "cpd.smiles": "CC[C@H](O)[C@@H]1C[C@@H]([C@@H](C)NC2CC2)[C@H](n2c(=O)sc3c(=O)[nH]c(N)nc32)O1",
    "unit.descriptor": "µM",
    "EC50": 3.5
  },
  {
    "cpd.smiles": "CC[C@H](O)[C@@H]1C[C@@H]([C@H](C)NCc2ccccc2)[C@H](n2c(=O)sc3c(=O)[nH]c(N)nc32)O1",
    "unit.descriptor": "µM",
    "EC50": 3.4
  }
]

* * *

This section presents compounds with their documented EC50 values.
- tested.on: human TLR7 (Homo sapiens, UniProt Q9NYK1)
- protocol.summary: HEK293-Blue-hTLR-7 cells assay (SEAP reporter)
- condition.label: TLR7 agonism, 20 hours incubation, 1% DMSO
reported.endpoint: EC50 (µM)

[
  {
    "cpd.smiles": "CC[C@H](O)[C@@H]1C[C@@H]([C@@H](C)NCc2ccccc2)[C@H](n2c(=O)sc3c(=O)[nH]c(N)nc32)O1",
    "val": 3.7
  },
  {
    "cpd.smiles": "CC[C@H](O)[C@@H]1C[C@@H]([C@@H](C)N(C)C)[C@H](n2c(=O)sc3c(=O)[nH]c(N)nc32)O1",
    "val": 82
  },
  {
    "cpd.smiles": "CCCN[C@H](C)[C@@H]1C[C@@H]([C@@H](O)CC)O[C@H]1n1c(=O)sc2c(=O)[nH]c(N)nc21",
    "val": 7.7
  },
  {
    "cpd.smiles": "CC[C@H](O)[C@@H]1C[C@@H]([C@@H](C)NC)[C@H](n2c(=O)sc3c(=O)[nH]c(N)nc32)O1",
    "val": 81
  },
  {
    "cpd.smiles": "CC[C@H](O)[C@@H]1C[C@@H]([C@@H](C)N)[C@H](n2c(=O)sc3c(=O)[nH]c(N)nc32)O1",
    "val": 101
  },
  {
    "cpd.smiles": "CC[C@H](O)[C@@H]1C[C@@H]([C@H](C)N)[C@H](n2c(=O)sc3c(=O)[nH]c(N)nc32)O1",
    "val": 75
  }
]
